Cited source: patent US20230135635A1

Item-by-item account of IC50
# subject_of_test: recombinant human ULK1 protein (1-649) (Homo sapiens, UniProt O75385)
# Construct: recombinant human ULK1 protein (1-649, SignalChem #U01-11G); purchased SignalChem U01-11G
# Sequence (O75385 1-649): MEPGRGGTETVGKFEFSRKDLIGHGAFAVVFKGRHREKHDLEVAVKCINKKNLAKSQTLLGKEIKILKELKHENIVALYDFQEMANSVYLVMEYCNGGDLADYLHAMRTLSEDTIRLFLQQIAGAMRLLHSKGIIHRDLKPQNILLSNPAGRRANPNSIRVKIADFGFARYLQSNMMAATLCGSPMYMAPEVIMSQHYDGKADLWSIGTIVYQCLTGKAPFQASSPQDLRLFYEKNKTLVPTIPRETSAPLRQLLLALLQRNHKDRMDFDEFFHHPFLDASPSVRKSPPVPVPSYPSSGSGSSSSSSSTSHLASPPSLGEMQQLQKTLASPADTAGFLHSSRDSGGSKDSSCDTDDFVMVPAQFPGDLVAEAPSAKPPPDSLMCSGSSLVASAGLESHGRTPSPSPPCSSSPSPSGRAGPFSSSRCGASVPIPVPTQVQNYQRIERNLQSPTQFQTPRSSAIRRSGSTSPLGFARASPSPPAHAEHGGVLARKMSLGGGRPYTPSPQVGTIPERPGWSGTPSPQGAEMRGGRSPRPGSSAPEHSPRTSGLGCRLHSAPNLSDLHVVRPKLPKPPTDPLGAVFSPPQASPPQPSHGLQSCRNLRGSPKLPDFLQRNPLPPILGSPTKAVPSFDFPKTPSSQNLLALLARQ
# experiment_summary: ULK1 inhibition assay (ADP Glo)
# Type: biochemical
# stated_conditions: Table 3

Examples with answers:
The recorded IC50 for COc1cc(Nc2ncc(Br)c(Nc3ccccc3SC)n2)cc(OC)c1OC [Compound E3] is 0.005 to 0.1 µM

Recorded result, COc1cc(Nc2ncc(Br)c(Oc3ccccc3CO)n2)cc(OC)c1OC [Compound C1] , IC50: > 0.1 µM

For COc1cc(Oc2ncc(Br)c(Nc3ccccc3CO)n2)cc(OC)c1OC [Compound C10] the compound record lists IC50 as > 0.1 µM

Briefly, IC50 measured for OCc1ccccc1Nc1nc(Nc2ccccc2)ncc1Br [Compound C4] : > 0.1 µM

Field IC50 (entry COc1cc(Nc2ncc(C(F)(F)F)c(Nc3ccccc3CO)n2)cc(OC)c1OC [Compound C3] ) reads < 0.005 µM

Continuing:
GET /value?item= OCCN(CCO)c1ccc(Nc2ncc(Br)c(Nc3ccccc3CO)n2)cc1 [Compound C16] &field=IC50 returns < 0.005 µM

Value of IC50 reported for the compound COc1cc(Nc2nccc(Nc3ccccc3CN)n2)cc(OC)c1OC [Compound C13] is > 0.1 µM

response.value for COc1cc(Nc2ncc(Br)c(Nc3ccccc3C(=O)O)n2)cc(OC)c1OC [Compound E2] (field: IC50) = < 0.005 µM

// COCc1ccccc1Nc1nc(Nc2cc(OC)c(OC)c(OC)c2)ncc1Br [Compound C2] : IC50 value = < 0.005 µM

For CNC(=O)c1ccccc1Nc1nc(Nc2cccc(OC(F)F)c2)ncc1Br [Compound E20] the compound record lists IC50 as > 0.1 µM

Noted for CN1CCN(c2ccc(Nc3ncc(Br)c(Nc4ccccc4CO)n3)cc2)CC1 [Compound C9] : its IC50 reads < 0.005 µM

Reported IC50 for NC(=O)c1ccc(Nc2ncc(Br)c(Nc3ccccc3CO)n2)cc1 [Compound C14] was 0.005 to 0.1 µM
